system: RhV-14 (Rhinovirus); assay: microbe, parasite or virus in culture; format: cell-based; details: Enterovirus, 120 h, 120 hours at 32° C.; read-out: IC50, RhV-14 (50 percent inhibition of plaque formation)
# IC50 per record follows
readout: IC50 (µg/mL)

1. C#CC=C(c1ccc(N(C)C)cc1)c1ccc2nc(N)n(S(=O)(=O)C(C)C)c2c1 [15B (trans)]
0.1
2. C#CC=C(c1cccc(F)c1)c1ccc2nc(N)n(S(=O)(=O)C(C)C)c2c1 [24 (trans)]
0.088
3. C#C/C=C(\c1ccccc1)c1ccc2nc(N)n(S(=O)(=O)C(C)C)c2c1 [2C (trans)]
0.081
4. C#CC=C(c1ccc(C)cc1)c1ccc2nc(N)n(S(=O)(=O)C(C)C)c2c1 [19 (trans)]
0.078
5. C#CC=C(c1ccccc1)c1ccc2nc(N)n(S(=O)(=O)C(C)C)c2c1F [22 (trans)]
1.9
6. C#CC=C(c1ccc2nc(N)n(S(=O)(=O)C(C)C)c2c1)c1cc(F)ccc1F [26 (trans)]
0.115
7. C#C/C=C(\c1ccccc1)c1cc2c(cc1F)nc(N)n2S(=O)(=O)C(C)C [5 (trans)]
1.9
8. C#C/C=C(\c1ccc(OC)cc1)c1ccc2nc(N)n(S(=O)(=O)C(C)C)c2c1 [3 (trans)]
0.059
